Test system: CEM-SS cells
Protocol: Cell cytotoxicity (Table 1)
Type: cell-based
Details: Homo sapiens, CEM-SS; read-out: Inhibitory Concentration50 For: Cell Cyto-toxicity
Test Readout: pIC50
Schema: pIC50 number; meaning minus log10 of the concentration expressed in molar units.

CCCCCCCCCCCCCCCCSCC(COP(=O)(O)OC[C@H]1O[C@@H](n2cc(C)c(=O)[nH]c2=O)C[C@@H]1N=[N+]=[N-])OC (stereo partly drawn); 4.53

Okay, now this compound:
pIC50 lookup needed for Cc1cn([C@H]2C[C@H](N=[N+]=[N-])[C@@H](CO)O2)c(=O)[nH]c1=O , thanks.
5.25
